Overview of recorded pIC50 for various compounds
# Assay target: Chemerin-like receptor 1 (Homo sapiens)
# Sequence (Q99788 whole entry): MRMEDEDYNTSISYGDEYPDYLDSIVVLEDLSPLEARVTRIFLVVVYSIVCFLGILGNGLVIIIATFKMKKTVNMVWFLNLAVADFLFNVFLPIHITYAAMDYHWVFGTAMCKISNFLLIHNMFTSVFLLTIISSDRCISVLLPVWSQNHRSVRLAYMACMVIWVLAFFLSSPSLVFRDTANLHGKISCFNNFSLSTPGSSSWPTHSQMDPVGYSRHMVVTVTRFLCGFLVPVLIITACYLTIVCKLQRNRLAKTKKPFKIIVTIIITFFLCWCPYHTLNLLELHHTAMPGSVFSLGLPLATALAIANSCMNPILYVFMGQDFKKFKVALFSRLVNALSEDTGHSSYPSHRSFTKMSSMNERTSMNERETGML
# Test description: Displacement of [125I]-chemerin from ChemR23 (unknown origin) transfected in mouse BaF3 cells after 3 hrs by scintillation counting method
pIC50: −log10 of the molar value.

Cc1cccc(C)c1N1C[C@@](CN2CCC(F)(F)C2)(C(=O)Nc2cc(C#N)cc(C(F)(F)F)c2)[C@H](C)C1=O ... ≥ 7.52
Cc1cccc(C)c1N1C[C@@](CN2CCC2)(C(=O)Nc2cc(C#N)cc(C(F)(F)F)c2)[C@H](C)C1=O ... 6.52 to 7.52
Cc1cccc(C)c1N1C[C@@](CN(C)C(C)C)(C(=O)Nc2cc(C#N)cc(C(F)(F)F)c2)[C@H](C)C1=O ... ≥ 7.52

# input Please state recorded pIC50 (tested on Chemerin-like receptor 1 (Homo sapiens)) of Cc1cccc(C)c1N1CC(C(=O)Nc2cc(F)cc(F)c2)CC1=O (stereo not drawn)
# output 5.22 to 6.52

# input Lab note: need pIC50 for O=C(Nc1cc(C(F)(F)F)cc(C(F)(F)F)c1)C1CC(=O)N(c2ccccc2)C1 (stereo not drawn) on Chemerin-like receptor 1 (Homo sapiens), anyone have it?
# output 5.22 to 6.52

# input # returns recorded pIC50 (system: Chemerin-like receptor 1 (Homo sapiens)) for Cc1cccc(C)c1N1CC(C(=O)Nc2cc(C(F)(F)F)cc(C(F)(F)F)c2)(N2CCOCC2)CC1=O (stereo not drawn)
# output ≥ 7.52

# input Form field - read-out: pIC50; system: Chemerin-like receptor 1 (Homo sapiens); submitted item: C/C=C/c1ccccc1N1CC(C(=O)Nc2cc(C(F)(F)F)cc(C(F)(F)F)c2)(C(C)C)CC1=O (stereo not drawn)
# output 6.52 to 7.52

# input Give recorded pIC50 with Chemerin-like receptor 1 (Homo sapiens) for the following compound: Cc1cccc(C)c1N1CC(C(=O)Nc2cc(C(F)(F)F)cc(C(F)(F)F)c2)(C2=CCSCC2)CC1=O (stereo not drawn)
# output ≥ 7.52

---

# Assay target: Chemerin-like receptor 1 (Homo sapiens)
# Test description: Displacement of [125I]-chemerin from ChemR23 (unknown origin) transfected in mouse BaF3 cells after 3 hrs by scintillation counting method
pIC50: −log10 of the molar value.
Test readout: pIC50

Below, each entry is followed by its recorded pIC50 result.
Cc1cccc(C)c1N1CC2(C(=O)Nc3cc(C(F)(F)F)cc(C(F)(F)F)c3)CCCC2C1=O (centres undefined) ... ≥ 7.52
CC[C@@]1(C(=O)Nc2cc(C#N)cc(C(F)(F)F)c2)CN(c2c(C)cccc2C)C(=O)[C@H]1C ... ≥ 7.52
Cc1cccc(CO)c1N1CC(C(=O)Nc2cc(C(F)(F)F)cc(C(F)(F)F)c2)(C(C)C)CC1=O (centres undefined) ... 6.52 to 7.52

Attention now shifts to the item below.
# input For the record `Cc1cccc(C)c1N1C[C@@](CN2CCCC2)(C(=O)Nc2cc(C(F)(F)F)cc(C(F)(F)F)c2)[C@H](C)C1=O` , what value of pIC50 is listed for Chemerin-like receptor 1 (Homo sapiens)?
# output 5.22 to 6.52

---

# Assay target: UniProt Q99788
# Sequence (Q99788 whole entry): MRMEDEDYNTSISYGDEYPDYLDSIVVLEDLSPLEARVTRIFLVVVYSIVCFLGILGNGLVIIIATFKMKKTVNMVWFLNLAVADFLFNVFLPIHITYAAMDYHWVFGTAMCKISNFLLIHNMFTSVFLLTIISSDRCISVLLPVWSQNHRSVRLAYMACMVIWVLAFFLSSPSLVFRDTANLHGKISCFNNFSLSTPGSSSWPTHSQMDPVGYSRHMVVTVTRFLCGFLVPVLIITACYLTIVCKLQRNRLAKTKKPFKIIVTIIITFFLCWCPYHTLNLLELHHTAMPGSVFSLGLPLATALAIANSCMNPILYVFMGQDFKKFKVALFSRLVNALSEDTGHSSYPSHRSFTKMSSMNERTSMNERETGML
# Test description: Displacement of [125I]-chemerin from ChemR23 (unknown origin) transfected in mouse BaF3 cells after 3 hrs by scintillation counting method
Test readout: IC50

Cc1cccc(C)c1N1C[C@@](CN2CCC(F)(F)CC2)(C(=O)Nc2cc(C#N)cc(C(F)(F)F)c2)[C@H](C)C1=O ... 30 to 300 nM
Cc1cccc(C)c1N1CC(C(=O)Nc2cc(C(F)(F)F)cc(C(F)(F)F)c2)(C2CCC2)CC1=O (centres undefined) ... ≤ 30 nM
Cc1cccc(C)c1N1C[C@@](CN2CCCCC2)(C(=O)Nc2cc(C#N)cc(C(F)(F)F)c2)[C@H](C)C1=O ... ≤ 30 nM
CCN(CC1CC1)C[C@@]1(C(=O)Nc2cc(C(F)(F)F)cc(C(F)(F)F)c2)CN(c2c(C)cccc2C)C(=O)[C@H]1C ... ≤ 30 nM
CCc1cccc(C)c1N1CC(C(=O)Nc2ccc(C(F)(F)F)cc2)CC1=O (centres undefined) ... 300 to 6000 nM

# input Returns the measured IC50 for the input compound. Input: Cc1cccc(C)c1N1CC(C(=O)Nc2cc(C(F)(F)F)cc(C(F)(F)F)c2)(C2CCSCC2)CC1=O (centres undefined)
# output ≤ 30 nM

# input Requested read-out: IC50. Entry: `Cc1cccc(C)c1N1C[C@@](CN2CCOCC2)(C(=O)Nc2cc(C(F)(F)F)cc(C(F)(F)F)c2)[C@H](C)C1=O`
# output 300 to 6000 nM

# input Using the record for C=Cc1ccccc1N1CC(C(=O)Nc2cc(C(F)(F)F)cc(C(F)(F)F)c2)(C(C)C)CC1=O (centres undefined) , report its IC50.
# output 30 to 300 nM

# input Need IC50 of `Cc1cccc(C)c1N1C[C@@](CN2CCCC(F)(F)C2)(C(=O)Nc2cc(C(F)(F)F)cc(C(F)(F)F)c2)[C@H](C)C1=O` , thanks.
# output 30 to 300 nM

---

# Assay target: Chemerin-like receptor 1 (Homo sapiens, UniProt Q99788)
# Test description: Displacement of [125I]-chemerin from ChemR23 (unknown origin) transfected in mouse BaF3 cells after 3 hrs by scintillation counting method
# Assay type: cell-based
pIC50: −log10 of the molar value.
Test readout: pIC50

These solved cases illustrate the format of a correct answer.
CC(C)C1(C(=O)Nc2cc(C(F)(F)F)cc(C(F)(F)F)c2)CC(=O)N(c2ccccc2CO)C1 (configuration not stated) ... 5.22 to 6.52
Cc1cccc(C)c1N1C[C@@](CN(C)CC(C)(C)C)(C(=O)Nc2cc(C(F)(F)F)cc(C(F)(F)F)c2)[C@H](C)C1=O ... ≥ 7.52
Cc1cccc(C)c1N1C[C@@](CN(CCF)CC2CC2)(C(=O)Nc2cc(C(F)(F)F)cc(C(F)(F)F)c2)[C@H](C)C1=O ... ≥ 7.52
CCN(C)C[C@@]1(C(=O)Nc2cc(C(F)(F)F)cc(C(F)(F)F)c2)CN(c2c(C)cccc2C)C(=O)[C@H]1C ... ≥ 7.52
Cc1cccc(C)c1N1C[C@@](CN2CCCC2)(C(=O)Nc2cc(C#N)cc(C(F)(F)F)c2)[C@H](C)C1=O ... ≥ 7.52

# input Returns the measured pIC50 for the input molecule. Input: `CC[C@@H]1C(=O)N(c2c(C)cccc2C)C[C@]1(C)C(=O)Nc1cc(C(F)(F)F)cc(C(F)(F)F)c1`
# output 5.22 to 6.52

# input Using the record for `COCCN(C)C[C@@]1(C(=O)Nc2cc(C#N)cc(C(F)(F)F)c2)CN(c2c(C)cccc2C)C(=O)[C@H]1C` , report its pIC50.
# output 6.52 to 7.52

---

The compounds listed here are annotated with their IC50.
# Assay target: Chemerin-like receptor 1 (Homo sapiens, UniProt Q99788)
# Test description: Displacement of [125I]-chemerin from ChemR23 (unknown origin) transfected in mouse BaF3 cells after 3 hrs by scintillation counting method

Recorded results for 5 compounds are shown here.
CC[C@@]1(C(=O)Nc2cc(OC(C)C)cc(C(F)(F)F)c2)CN(c2c(C)cccc2C)C(=O)[C@H]1C ... ≤ 30 nM
Cc1ccccc1N1CC(C(=O)Nc2cc(C(F)(F)F)cc(C(F)(F)F)c2)(C(C)C)CC1=O (stereo not drawn) ... ≤ 30 nM
Cc1cccc(C)c1N1CC(C(=O)Nc2cc(C(F)(F)F)cc(C(F)(F)F)c2)(N(C)C)CC1=O (stereo not drawn) ... ≤ 30 nM
CC[C@]1(C(=O)Nc2cc(C(F)(F)F)cc(C(F)(F)F)c2)CC(=O)N(c2c(C)cccc2C)C1 ... ≤ 30 nM
Cc1cccc(C)c1N1CC(C(=O)Nc2cc(C(F)(F)F)cc(C(F)(F)F)c2)(C2CCCCC2)CC1=O (stereo not drawn) ... ≤ 30 nM

# input Consider the compound shown here: Cc1cccc(C)c1N1CC(C(=O)Nc2cccc(C#N)c2)CC1=O (stereo not drawn) What is its recorded IC50?
# output 300 to 6000 nM

# input Which IC50 is listed for `CCN(CCF)C[C@@]1(C(=O)Nc2cc(C(F)(F)F)cc(C(F)(F)F)c2)CN(c2c(C)cccc2C)C(=O)[C@H]1C` ?
# output ≤ 30 nM

# input # IC50 lookup, item `Cc1cccc(C)c1N1C[C@@](CN2CCC(F)CC2)(C(=O)Nc2cc(C#N)cc(C(F)(F)F)c2)[C@H](C)C1=O`
# output ≤ 30 nM

# input Recorded IC50 of `CC[C@@]1(C(=O)Nc2cc(OC3CCC3)cc(C(F)(F)F)c2)CN(c2c(C)cccc2C)C(=O)[C@H]1C` , please.
# output ≤ 30 nM

# input Name the reported IC50 value associated with the compound `CC[C@@]1(C(=O)Nc2cc(F)cc(C(F)(F)F)c2)CN(c2c(C)cccc2C)C(=O)[C@H]1C`
# output 30 to 300 nM

# input I have this compound here, `CCOc1cc(NC(=O)[C@]2(CC)CN(c3c(C)cccc3C)C(=O)[C@H]2C)cc(C(F)(F)F)c1` , and I need its recorded IC50.
# output 30 to 300 nM

# input Using the record for `Cc1cccc(C)c1N1C[C@](C(=O)Nc2cc(C(F)(F)F)cc(C(F)(F)F)c2)(N(C)C)CC1=O` , report its IC50.
# output ≤ 30 nM

FYI, the data here is from ChEMBL document CHEMBL3879908.
